test: Solubility assays of DMSO stock mixed with PBS (simulating the vitreous); assay type: physicochemical; settings: DMSO stock solution mixed with PBS (simulating the vitreous), aqueous with cosolvent or surfactant or cyclodextrin, kinetic from dmso stock; delivered in 1 ul of DMSO; read-out: Maximum soluble concentration for intravitreal injection
MEASURED_ENDPOINT: solubility (µM)

{"columns": ["SMILES_NOTATION", "MEASURED_ENDPOINT", "UNIT_OF_MEASURE", "ASSAY_VALUE"],
 "data": [
  ["COC(=O)Nc1nc2cc(C(=O)c3ccc(F)cc3)ccc2[nH]1", "solubility", "µM", 500]
]}
